experiment: Dye solubility in methyl ethyl ketone/toluene; assay type: physicochemical; design: key: A (easily soluble); B (soluble); C (difficult to dissolve, but soluble); settings: solvent methyl ethyl ketone/toluene (1/1, w/w), ranked in three
readout label: Solubility

> print(dat)
                                   compound  readout.label  value.observed
1  CCOC1=NN(S(=O)(=O)N(C)C)C(=O)/C1=C\c1ccc(N(CC)CC)cc1 [Compound Y-8]     Solubility               A
2  CCOC1=NN(S(C)(=O)=O)C(=O)/C1=C\c1ccc(N(CC)CC)cc1 [Compound Y-1]     Solubility               A
3  CCOC1=NN(c2ccccc2)C(=O)/C1=C\c1ccc(N(CC)CC)cc1 [Comparative Dye 2]     Solubility               B
4  CCOC1=NN(C)C(=O)/C1=C\c1ccc(N(CC)CC)cc1 [Comparative Dye 3]     Solubility               A

* * *

experiment: Wet heat fastness of thermal transfer recorded image (80° C., 70% RH, dark); assay type: physicochemical; details: 80° C. and 70% RH in a dark place for 7 days; retention of Status A reflection density 1.0; image from thermal transfer ink sheet
readout label: Wet Heat Fastness

> print(dat)
                                 cpd.smiles         value.observed
1  CCOC1=NN(c2ccccc2)C(=O)/C1=C\c1ccc(N(CC)CC)cc1  C (C (less than 80%))
2   CCOC1=NN(C)C(=O)/C1=C\c1ccc(N(CC)CC)cc1  C (C (less than 80%))
